Each recorded value in this set is attributed to ChEMBL document CHEMBL5244223.

Tested on: HepG2
assay_comment: Antiproliferative activity against human HepG2 cells assessed as inhibition of cell growth incubated for 48 hrs by MTT assay
Type: functional, cell-based
measurement_context: HepG2, 48 h
pIC50: −log10 of the molar value.
observation_type: pIC50

In [3]: df
Out[3]:
                                smiles_text  numeric_value
0  O=C1c2cccc3cc([N+](=O)[O-])cc(c23)C(=O)N1CCCCN(CCCl)CCCl           5.72

----------
Recorded MIC values for a group of compounds are listed next.
System: Staphylococcus aureus
assay_comment: Antibacterial activity against methicillin-resistant Staphylococcus aureus N315 assessed as inhibition of bacterial growth incubated for 24 hrs by two-fold serial dilution assay
Type: functional
observation_type: MIC

                                smiles_text  observation_type       result
0  O=C1c2cccc3c(Sc4nc5ccccc5n4Cc4ccc(F)cc4F)ccc(c23)C(=O)N1CCCCn1cncn1               MIC  > 512 µg/mL
1  O=C1c2cccc3c(Sc4nc5ccccc5n4Cc4ccc(Cl)cc4Cl)ccc(c23)C(=O)N1CCCCn1c[n+](Cc2ccccc2Cl)cn1               MIC      2 µg/mL
2  O=C1c2cccc3c(Sc4nc5ccccc5n4Cc4cccc(F)c4)ccc(c23)C(=O)N1CCCCn1cncn1               MIC  > 512 µg/mL
3  O=C1c2cccc3c(Sc4nc5ccccc5n4Cc4ccc(Cl)cc4)ccc(c23)C(=O)N1CCCCn1cncn1               MIC  > 512 µg/mL
